All figures here come from PubChem BioAssay (NCI).

Test system: K-562 leukemia
method-description: NCI-60 one-dose screen, 48 h
assay-conditions: 10 µM unless noted
Compounds without any hit were thinned out: in the full panel of roughly 83,000, 20% have a hit. Active and inactive are the calls of the source. How the source made its calls: active means growth percent below 10; inactive means the rest.
Your reply should match one of these outcome classes. label 1 (active), label 0 (inactive)

Known results for compounds:
>>> assigned_label("C[C@@H]1CC2C3C[C@H](F)C4=CC(=O)C=C[C@]4(C)[C@@]3(F)[C@@H](O)C[C@]2(C)[C@@]1(O)C(=O)CO (some centres undefined)")
"label 0"
>>> assigned_label("NC(N)=N/N=C/c1ccc([N+](=O)[O-])cc1")
"label 0"
>>> assigned_label("CN1CCN(CC(=O)N(C)c2ccc(N=C(c3ccccc3)c3c(O)[nH]c4ccc(C#N)cc34)cc2)CC1")
"label 0"
>>> assigned_label("COC1OCC(OS(=O)(=O)c2ccc(C)cc2)C(OC(=O)c2ccccc2)C1OC(=O)c1ccccc1 (centres undefined)")
"label 0"
>>> assigned_label("CCN(CC)CC(=O)Nc1c(C)cccc1C")
"label 0"
>>> assigned_label("CCCC(C)(C)COC(=O)c1cccc(N)c1")
"label 0"
>>> assigned_label("C=C1C(=O)O[C@H]2[C@H]1CC/C(C(=O)NCCOCCOCC(=O)Nc1ccc(OC)c(C(N)=O)c1O)=C\\CC[C@@]1(C)O[C@@H]21")
"label 0"
>>> assigned_label("COc1ccc(/C=C2\\CS(=O)(=O)C/C(=C\\c3ccc(OC)cc3)C2=O)cc1")
"label 1"

Outcome? COc1ccc(Cn2cc(COc3ccc4c5ccnc(C)c5n(CCCc5ccccc5)c4c3)nn2)cc1 label 0

====

Test system: KM12 colon
method-description: NCI-60 one-dose screen, 48 h (100 = growth as untreated, 0 = no growth, -100 = all killed)
assay-conditions: 10 µM unless noted
About 83,000 compounds went through this panel and 20% of them were active in at least one assay; those are over-represented in the sample as a whole.
Entries and their growth values follow.
Entry rule: numbers only, all in %.

// below: answered compounds
>>> observed_measurement("Nc1nc(Cl)cc(NCCCCNc2cc(Cl)nc(N)n2)n1")
113
>>> observed_measurement("O=C1CCC(c2c(O)cc(O)c3c(=O)c(O)c(-c4ccc(O)c(O)c4)oc23)N1 (stereo unspecified)")
101
>>> observed_measurement("COc1ccc(-c2nn(-c3ccc(NC(=O)c4cc(Cl)cc(Cl)c4)cc3)cc2-c2ccncc2)cc1Cl")
29.7
>>> observed_measurement("O=C1COc2ccccc2C(=O)N1CCCCNc1ccccc1")
79.9
>>> observed_measurement("Nc1ncnc2c1c(-c1ccc(Oc3ccccc3)cc1)nn2C[C@H]1SSC[C@@H]1O")
32.6

Turning to the following compound.
Which growth is listed for Cc1ccc(-c2cn3cc([N+](=O)[O-])ccc3n2)cc1 ? 91.4

====

Test system: NCI-H23 lung
method-description: NCI-60 one-dose screen, 48 h (100 = growth as untreated, 0 = no growth, -100 = all killed)
assay-conditions: 10 µM unless noted
Protocol: Growth inhibition of the NCI-H23 human Non-Small Cell Lung tumor cell line is measured as a screen for anti-cancer activity. Cells are grown in 96 well plates and exposed to the test compound for 48 hours. Compounds are tested at a single concentration, which is 10^-5 M for most compounds. The reported endpoint is percent growth (GI% or GIPRCNT), where numbers from 0 - 100% represent growth inhibition, and numbers from -100% - 0 represent cell death. […]
Compounds without any hit were thinned out: in the full panel of roughly 83,000, 20% have a hit.
Entries and their growth values follow.
Entry rule: numbers only, all in %.

>>> observed_measurement("CCCC(=O)Oc1ccc(/C(=C(\\C)c2ccc(Cl)cc2)c2ccc(OCCN(CC)CC)cc2)cc1")
-33.4
>>> observed_measurement("CC(=O)N1N=C(CCC(=O)c2nc3ccc([N+](=O)[O-])cc3[nH]2)OC1c1ccc(O)cc1 (stereo not given)")
93.2
>>> observed_measurement("COc1ccc2c(-c3ccc(F)cc3)c(C#N)c(=NC(C)=O)oc2c1")
53.8

Which growth is listed for CCC1S/C(=N\N=C(/C)c2ccco2)N(c2ccccc2)C1=O (stereo not given) ? 98.8

Which growth is listed for CN(C)c1ccc(/C=N/n2c(-c3cc(F)c(Cl)cc3Cl)nn(CN3CCOCC3)c2=S)cc1 ? 101
